Test system: MRGPRX2-MUT (MRGPRX2 N62S mutation) (Homo sapiens, UniProt Q96LB1, N62S)
Construct: expressed in transfected cells
Sequence (Q96LB1 whole entry N62S): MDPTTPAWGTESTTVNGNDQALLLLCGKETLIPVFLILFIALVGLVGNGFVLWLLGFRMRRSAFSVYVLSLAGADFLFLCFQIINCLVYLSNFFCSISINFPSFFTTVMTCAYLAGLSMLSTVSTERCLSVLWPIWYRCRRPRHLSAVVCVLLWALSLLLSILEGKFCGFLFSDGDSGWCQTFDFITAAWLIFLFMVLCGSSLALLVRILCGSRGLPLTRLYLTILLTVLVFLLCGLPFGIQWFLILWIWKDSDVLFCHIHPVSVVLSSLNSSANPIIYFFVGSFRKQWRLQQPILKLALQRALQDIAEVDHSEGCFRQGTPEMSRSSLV
Experimental protocol: Primary HTS, Ca2+ mobilization (fluorescence ratio, B-score) in HEK293-Gα15 cells stably expressing the MRGPRX2 N62S mutation
Type: cell-based
Run parameters: 10 μM compound, MRGPRX2-MUT (N62S) cells, Supplementary Table 1
Counter-ions that a name gives are not always drawn.
Would you mind classing the entries by B-scores (MUT)? Ranges: low interval = under 1, middle interval = from 1 up to 8, high interval = 8 and over

Reference set (2 entries):
Compound	Test system	Cat
CNCCC(Oc1ccc(C(F)(F)F)cc1)c1ccccc1 (stereo not drawn)	MRGPRX2-MUT (MRGPRX2 N62S mutation) (Homo sapiens, UniProt Q96LB1, N62S)	middle interval
CN1CCN(CC/C=C2/c3ccccc3Sc3ccc(S(=O)(=O)N(C)C)cc32)CC1	MRGPRX2-MUT (MRGPRX2 N62S mutation) (Homo sapiens, UniProt Q96LB1, N62S)	middle interval

## Input Note: place this compound into its band. Item: CN(C)CCC(c1ccc(Br)cc1)c1ccccn1 (stereo not drawn) [Brompheniramine]
## Output low interval

## Input And for CN1CCN(c2cc3c(cc2F)c(=O)c(C(=O)O)cn3-c2ccc(F)cc2)CC1 [Difloxacin Hydrochloride] ?
## Output middle interval

## Input Same question for "CO[C@H]1/C=C/O[C@@]2(C)Oc3c(C)c(O)c4c(O)c(c(/C=N/N5CCN(C)CC5)c(O)c4c3C2=O)NC(=O)/C(C)=C\C=C\[C@H](C)[C@H](O)[C@@H](C)[C@@H](O)[C@@H](C)[C@H](OC(C)=O)[C@@H]1C" please.
## Output low interval

## Input Do the same for "C=C[C@@]1(C)CC(=O)[C@]2(O)[C@@]3(C)[C@@H](O)CCC(C)(C)[C@@H]3[C@H](O)[C@H](OC(C)=O)[C@@]2(C)O1" please
## Output low interval

## Input Entry "CCCCC[C@H](O)/C=C/[C@@H]1[C@H]2C/C(=C/CCCC(=O)O)O[C@H]2C[C@H]1O" please
## Output high interval

## Input Also check NC[C@H](O)c1ccc(O)c(O)c1 [Norepinephrine]
## Output middle interval

## Input Continue with CN1[C@@H]2CC[C@H]1C[C@@H](OC(c1ccccc1)c1ccccc1)C2 [Benztropine]
## Output middle interval

## Input What do we get for CC(C)CCCC(C)NC(C)C (stereo not drawn) ?
## Output high interval

## Input Now try COc1ccc2c3c1O[C@H]1C[C@@H](O)C=C[C@@]31CCN(C)C2 [Galantamine] .
## Output middle interval

## Input Request: "CCOC(=O)[C@H](CCc1ccccc1)N[C@@H](C)C(=O)N1[C@H](C(=O)O)C[C@@H]2CCC[C@@H]21"
## Output high interval
